Provide the recorded pest or weed control at 70 g/ha for the entries that follow.
# Test system: Direct Seeded Rice and weed species
# protocolSummary: Postemergence herbicidal activity in direct seeded rice, visual rating after 20-22 days and probit GR20/GR50/GR80/GR90 (Table 14)
# Type: in vivo
# measurementParameters: post-emergence, 504 h; CYPES (yellow nutsedge, Cyperus esculentus); 70 g ai/ha; postemergence; read-out: Visual Growth Reduction (%) 21 Days After Application CYPES
# Procedure: Herbicidal evaluations were made visually on a scale of 0 to 100 where 0 represents no activity and 100 represents complete plant death. […] A weighed amount, determined by the highest rate to be tested, of each test compound was placed in 25 mL glass vials and dissolved in a volume of 97:3 v/v acetone-DMSO to obtain 12× stock solutions. […]

[[record]]
inputsmiles = "COC(=O)c1nc(-c2ccc3c(c2F)OC(F)(F)O3)c(F)c(N)c1Cl"
readouttype = "pest or weed control at 70 g/ha"
result = "95 to 100%"


Hello, I would appreciate it if you could give pest or weed control at 70 g/ha for each entry below.
1. Nc1cc(-c2cc3c(cc2F)OC(F)(F)O3)nc(C(=O)O)c1Cl
2. COc1c(C(=O)O)nc(-c2ccc3c(c2)OC(F)(F)O3)c(F)c1N

Result:
1. 95 to 100%
2. 95 to 100%
